# measurement description: chemical genetic growth profiling, strain panel (AID 1159580);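 also: tested at 20 µM; growth read once vehicle control cultures reached saturation at 30 °C; 1 = growth at the plate median or of vehicle wells; lower values mean less growth of the strain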
# condition set: S. cerevisiae deletion strains, growth OD, locus YGL248W, strain PDE1, stronger effect = lower value
In all, about 5,500 compounds went through this assay and about 2,000 (36%) were called active. Not shown: some 18% with an inconclusive outcome. The list shows a part of the results.
measured parameter: normalized growth
Output: the number by itself.

- compound: "NC(N)=NOCC[C@H](N)C(=O)O"
  normalized growth: 0.994
- compound: "C[N+](C)(C)CC(=O)[O-]"
  normalized growth: 0.989
- compound: "CCc1ccc(CCOc2ccc(CC3SC(=O)NC3=O)cc2)nc1 (stereo not drawn)"
  normalized growth: 0.999
- compound: "CCC(C(=O)O)c1ccccc1 (stereo not drawn)"
  normalized growth: 1

Prompt line: Could you share which normalized growth value was measured for NC(=O)N1c2ccccc2CC(=O)c2ccccc21 ?
Response line: 0.987

Prompt line: Could you share which normalized growth value was measured for CCN(CC)C(=S)SSC(=S)N(CC)CC ?
Response line: 0.0479

Prompt line: Could you share which normalized growth value was measured for COc1ccc(C(=O)c2ccccc2)c(O)c1 ?
Response line: 0.944

* * *

# measurement description: chemical genetic growth profiling, strain panel (AID 1159580);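 also: tested at 20 µM; growth read once vehicle control cultures reached saturation at 30 °C; 1 = growth at the plate median or of vehicle wells; lower values mean less growth of the strain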
# condition set: S. cerevisiae deletion strains, growth OD, locus YBR021W, strain FUR4, stronger effect = lower value
The campaign covered roughly 5,500 compounds. About 2,000 (36%) were called active. Roughly 18% stayed inconclusive and do not appear here. This is one part of the list.
measured parameter: normalized growth
Output: the number by itself.

Take a look at these entries with their results.
- compound: "Oc1c(Cl)c(Cl)c(Cl)c(Cl)c1Cl"
  test result: 0.636
- compound: "CC(C)N(C(=O)CCl)c1ccccc1"
  test result: 1.07
- compound: "C/C=C(/C(=C/C)c1ccc(O)cc1)c1ccc(O)cc1"
  test result: 0.907
- compound: "CN1C2CC3C[C@H]1C(O3)C2O (some centres not stated)"
  test result: 0.99
- compound: "CC1(C)C2CC[C@]3(C)C(C(=O)C=C4[C@H]5C[C@@](C)(C(=O)O)CC[C@]5(C)CC[C@]43C)[C@@]2(C)CC[C@@H]1O (some centres not stated)"
  test result: 1
- compound: "CCOC(=O)/C=C(\\C)OP(=O)(OC)OC"
  test result: 1.02
- compound: "COc1ccc(-c2c(O)c3cc4c(c(CC=C(C)C)c3oc2=O)OC(C)(C)CC4)cc1"
  test result: 1.01
- compound: "Oc1ccc(O)cc1"
  test result: 0.688
- compound: "CN=C(NC#N)NCCSCc1nc[nH]c1C"
  test result: 0.993
- compound: "OCc1ccccc1O[C@@H]1O[C@H](CO)[C@@H](O)[C@H](O)[C@H]1O"
  test result: 1.04

Prompt line: Could you share which normalized growth value was measured for COc1cc(OC)c2c(c1)O[C@H](c1ccc(OC)c(OC)c1)[C@@H](O)C2 ?
Response line: 1.06

Prompt line: Could you share which normalized growth value was measured for CC1(C)C2CC[C@]3(C)C(C(=O)C=C4[C@@H]5C[C@@](C)(C(=O)O)CC[C@]5(C)CC[C@]43C)[C@@]2(C)CC[C@@H]1OC(=O)CCC(=O)O (some centres not stated) ?
Response line: 0.981

Prompt line: Could you share which normalized growth value was measured for CC(C)CC1C(=O)N2CCC[C@H]2C2(O)O[C@](NC(=O)C3C=C4c5cccc6[nH]c(Br)c(c56)C[C@H]4N(C)C3)(C(C)C)C(=O)N12 (some centres not stated) ?
Response line: 0.996

Prompt line: Could you share which normalized growth value was measured for CCC(C(=O)O)c1ccccc1 (configuration not stated) ?
Response line: 1.01

Prompt line: Could you share which normalized growth value was measured for COc1c2c(c(CC=C(C)C)c3oc(=O)c(-c4ccc(O)cc4)c(O)c13)OC(C)(C)C=C2 ?
Response line: 0.849

Prompt line: Could you share which normalized growth value was measured for C[N+](C)(C)CC(=O)[O-] ?
Response line: 1.16
